System: Zymoseptoria tritici
Experiment: Test B: test suspension sprayed on wheat seedlings, inoculated next day with Zymoseptoria tritici (wheat leaf blotch), visual disease rating
Type: in vivo
Settings: 250 ppm test suspension, relative to the controls
Marks after values point to notes of the source that are not given here.

[
  {
    "compound": "CCOC(=O)c1csc(COc2ccc(-c3noc(C(F)(F)F)n3)cc2)n1 [compound 404]",
    "Test B rating (% disease control)": "0* %"
  },
  {
    "compound": "CON=C(CCl)COC(=O)c1cnn(Cc2ccc(-c3noc(C(F)(F)F)n3)cc2)c1 [compound 494]",
    "Test B rating (% disease control)": "47* %"
  },
  {
    "compound": "COC(=O)c1coc(Cc2ccc(-c3noc(C(F)(F)F)n3)cc2)n1 [Compound 490]",
    "Test B rating (% disease control)": "94* %"
  },
  {
    "compound": "O=C(NCCC(F)(F)F)c1csc(COc2ccc(-c3noc(C(F)(F)F)n3)cc2)n1 [compound 472]",
    "Test B rating (% disease control)": "22* %"
  },
  {
    "compound": "O=C(NCCCC(F)(F)F)c1coc(Cc2ccc(-c3noc(C(F)(F)F)n3)cc2)n1 [compound 398]",
    "Test B rating (% disease control)": "80* %"
  },
  {
    "compound": "O=C(NCCF)c1coc(Cc2ccc(-c3noc(C(F)(F)F)n3)cc2)n1 [compound 400]",
    "Test B rating (% disease control)": "99* %"
  },
  {
    "compound": "O=C(NCC=C(Cl)Cl)c1coc(Cc2ccc(-c3noc(C(F)(F)F)n3)cc2)n1 [compound 399]",
    "Test B rating (% disease control)": "10* %"
  },
  {
    "compound": "O=C(c1coc(Cc2ccc(-c3noc(C(F)(F)F)n3)cc2)n1)N1CCC(F)(F)C1 [compound 402]",
    "Test B rating (% disease control)": "96* %"
  },
  {
    "compound": "CCOC(=O)c1cccc(Cc2ccc(-c3noc(C(F)(F)F)n3)cc2)c1 [Compound 454]",
    "Test B rating (% disease control)": "47* %"
  },
  {
    "compound": "CC1(C)OCC(COC(=O)c2cnn(Cc3ccc(-c4noc(C(F)(F)F)n4)cc3)c2)O1 (centres unmarked) [compound 496]",
    "Test B rating (% disease control)": "48* %"
  },
  {
    "compound": "CCOC(=O)c1cnn(CCN2CCC(c3noc(C(F)(F)F)n3)CC2)c1 [compound 459]",
    "Test B rating (% disease control)": "0* %"
  },
  {
    "compound": "COCCNC(=O)c1coc(COc2ccc(-c3noc(C(F)(F)F)n3)cc2)n1 [compound 464]",
    "Test B rating (% disease control)": "94* %"
  },
  {
    "compound": "N#CCNC(=O)c1csc(Cc2ccc(-c3noc(C(F)(F)F)n3)cc2)n1 [compound 393]",
    "Test B rating (% disease control)": "94* %"
  },
  {
    "compound": "COCCNC(=O)c1csc(Cc2ccc(-c3noc(C(F)(F)F)n3)cc2)n1 [compound 394]",
    "Test B rating (% disease control)": "99* %"
  },
  {
    "compound": "CN(C)C(=O)C1=NOC(COc2cccc(-c3noc(C(F)(F)F)n3)c2)C1 (centres unmarked) [compound 502]",
    "Test B rating (% disease control)": "62%"
  },
  {
    "compound": "O=C(CCl)COC(=O)c1cnn(Cc2ccc(-c3noc(C(F)(F)F)n3)cc2)c1 [compound 495]",
    "Test B rating (% disease control)": "43* %"
  },
  {
    "compound": "CCOC(=O)c1cnn(CN2CCC(c3noc(C(F)(F)F)n3)CC2)c1 [compound 458]",
    "Test B rating (% disease control)": "0* %"
  }
]
